Sourced from ChEMBL document CHEMBL1154485

Form field: Activity (one value per entry).
# Tested on: Rattus norvegicus
# measurement-notes: Antihyperglycemic activity against sucrose-challenged streptozotocin-induced fasted Sprague-Dawley rat assessed as reduction in blood glucose at 100 mg/kg, po administered 30 mins before sucrose challenge measured after 24 hrs post sucrose dose relative to control
# Type: functional
# Parameters: scale not given: the % may be the effect or the level left
Note: unit % is implicit; provide only the numeric part.

Check out these entries, answers already filled in.
>  <molecule>
Cc1ccc(NCCCOc2ccc(-c3nc4c(ccc5ccccc54)o3)cc2)cc1

>  <Activity [%]>
15.2

$$$$
>  <molecule>
CCN(CC)CCOc1ccc(-c2nc3c(ccc4ccccc43)o2)cc1

>  <Activity [%]>
9.7

$$$$
>  <molecule>
c1ccc2c(c1)ccc1oc(-c3ccc(OCCCN4CCCCC4)cc3)nc12

>  <Activity [%]>
11.2

$$$$

Moving on to another molecule below.
The value of Activity measured for the molecule CCN(CC)CCCOc1ccc(-c2nc3c(ccc4ccccc43)o2)cc1 turned out to be 13.6
